Target: Nuclear receptor subfamily 1 group I member 2 (Homo sapiens, UniProt O75469)
Sequence (O75469 whole entry): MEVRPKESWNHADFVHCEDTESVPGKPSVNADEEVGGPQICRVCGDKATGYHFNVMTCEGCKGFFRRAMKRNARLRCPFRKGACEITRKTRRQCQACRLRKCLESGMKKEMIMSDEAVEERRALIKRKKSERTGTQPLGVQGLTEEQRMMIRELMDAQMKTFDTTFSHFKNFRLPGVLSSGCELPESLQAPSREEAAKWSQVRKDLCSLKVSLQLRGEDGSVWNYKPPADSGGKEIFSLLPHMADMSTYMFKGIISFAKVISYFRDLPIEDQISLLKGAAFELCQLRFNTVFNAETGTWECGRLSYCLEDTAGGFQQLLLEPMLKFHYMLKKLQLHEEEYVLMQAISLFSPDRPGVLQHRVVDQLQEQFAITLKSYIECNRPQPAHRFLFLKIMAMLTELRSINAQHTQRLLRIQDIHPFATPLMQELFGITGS
Experiment: Transactivation of human full-length PXR transfected in human HepG2 cells after 24 hrs by luciferase reporter gene assay
// reported EC50 per item
measurement_type: EC50

>>> recorded_value("CC(C)[C@@H](NC(=O)NC[C@H](C)O)C(=O)N1CC[C@](O)(c2ccc(Cl)cc2)C(C)(C)C1")
"> 25 µM"
>>> recorded_value("CC(C)[C@@H](NC(=O)NC[C@@H](C)O)C(=O)N1CC[C@](O)(c2ccc(Cl)cc2)C(C)(C)C1")
"> 25 µM"
>>> recorded_value("CC(C)[C@@H](NC(=O)NCC(C)(C)O)C(=O)N1CC[C@](O)(c2ccc(Cl)cc2)C(C)(C)C1")
"> 25 µM"
>>> recorded_value("CC(C)[C@@H](NC(=O)N[C@H]1CC[C@H](O)C1)C(=O)N1CC[C@](O)(c2ccc(Cl)cc2)C(C)(C)C1")
"5.7 µM"
>>> recorded_value("CC(C)[C@@H](NC(=O)N[C@@H]1CC[C@@H](O)C1)C(=O)N1CC[C@](O)(c2ccc(Cl)cc2)C(C)(C)C1")
"> 50 µM"
>>> recorded_value("CC(C)[C@@H](NC(=O)N[C@@H]1CC[C@H](O)C1)C(=O)N1CC[C@](O)(c2ccc(Cl)cc2)C(C)(C)C1")
"> 50 µM"
>>> recorded_value("CC(C)[C@@H](NC(=O)N[C@H]1CC[C@@H](O)C1)C(=O)N1CC[C@](O)(c2ccc(Cl)cc2)C(C)(C)C1")
"19 µM"
>>> recorded_value("CC(C)[C@@H](NC(=O)CC(C)(C)O)C(=O)N1CC[C@](O)(c2ccc(Cl)cc2)C(C)(C)C1")
"2.3 µM"
>>> recorded_value("CC(C)[C@@H](NC(=O)C[C@@H](C)O)C(=O)N1CC[C@](O)(c2ccc(Cl)cc2)C(C)(C)C1")
"7.8 µM"
>>> recorded_value("CC(C)[C@@H](NC(=O)CCC(C)(C)O)C(=O)N1CC[C@](O)(c2ccc(Cl)cc2)C(C)(C)C1")
"25 µM"

* * *

Test: Bioavailability in rat at 5 mg/kg
Format: ADME, organism-based
Settings: in vivo
measurement_type: bioavailability (%)

>>> recorded_value("CC(C)[C@@H](NC(=O)NCC(C)(C)O)C(=O)N1CC[C@](O)(c2ccc(Cl)cc2)C(C)(C)C1")
46
